Hey, just so you know, these numbers are from patent US20250018049A1.

TGT: CDK2 (Homo sapiens, UniProt P24941)
PROCEDURE_TEXT: NanoBRET CDK2 engagement assay
Type: cell-based
Parameters: expressed in transfected cells
REPORTED_CONDITIONS: OVCAR3 cells with stable CDK2-Luciferase vector, 24 hours treatment
MEASUREMENT_TYPE: pIC50
# pIC50 = -log10(concentration in molar units)

GET /value?item= O=C1CCC(N2C(=O)c3cc(F)c(N4C5CCC4CN(Cc4cccc(S(=O)(=O)N6CCC(Nc7ncc8ccc(=O)n(C9CCCC9)c8n7)CC6)c4)C5)cc3C2=O)C(=O)N1 (stereo not drawn) &field=pIC50 returns 6.23

GET /value?item= O=C1CCC(N2C(=O)c3cccc(NCCOCCOCCOCCNS(=O)(=O)N4CCC(Nc5ncc6ccc(=O)n(C7CCCC7)c6n5)CC4)c3C2=O)C(=O)N1 (stereo not drawn) &field=pIC50 returns 5.93

GET /value?item= O=C(COc1cccc2c1C(=O)N(C1CCC(=O)NC1=O)C2=O)NCCOCCOCCN1CCN(S(=O)(=O)N2CCC(Nc3ncc4ccc(=O)n(C5CCCC5)c4n3)CC2)CC1 (stereo not drawn) &field=pIC50 returns 5.88

GET /value?item= O=C1CCC(N2C(=O)c3ccc(N4CC(Oc5cccc(S(=O)(=O)N6CCC(Nc7ncc8ccc(=O)n(C9CCCC9)c8n7)CC6)c5)C4)cc3C2=O)C(=O)N1 (stereo not drawn) &field=pIC50 returns 5.32

GET /value?item= O=C(COc1cccc2c1C(=O)N(C1CCC(=O)NC1=O)C2=O)NCCOCCOCCOCCOCCN1CCN(S(=O)(=O)N2CCC(Nc3ncc4ccc(=O)n(C5CCCC5)c4n3)CC2)CC1 (stereo not drawn) &field=pIC50 returns 5.78
